tested.on: T1, Cynomolgus monkey BCMA (cynomolgus monkey)
T1 construct: Soluble analyte in SPR; also called cyBCMA; Cyno BCMA
protocol.text: SPR, IgG immobilised, cyno BCMA analyte
Please use 1 whenever koff is not below 0.001 s⁻¹, and 0 whenever it is.

Enquiry: Reported koff reaches at least 0.001 s⁻¹ for COMBO_Rd4_6nM_C10 (antibody, V domains shown, IgG) VH: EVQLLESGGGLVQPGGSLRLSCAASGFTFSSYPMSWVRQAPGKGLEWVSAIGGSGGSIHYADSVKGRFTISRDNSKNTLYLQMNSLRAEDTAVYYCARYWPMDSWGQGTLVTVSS VL: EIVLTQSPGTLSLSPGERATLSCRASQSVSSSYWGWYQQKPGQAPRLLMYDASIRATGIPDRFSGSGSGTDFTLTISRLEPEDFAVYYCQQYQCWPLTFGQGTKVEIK ?
Return: 0

Enquiry: Reported koff reaches at least 0.001 s⁻¹ for A02_Rd4_6nM_C26 (antibody, V domains shown, IgG) VH: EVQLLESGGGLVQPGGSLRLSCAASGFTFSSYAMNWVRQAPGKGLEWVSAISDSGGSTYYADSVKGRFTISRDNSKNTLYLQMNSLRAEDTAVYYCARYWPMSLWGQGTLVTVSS VL: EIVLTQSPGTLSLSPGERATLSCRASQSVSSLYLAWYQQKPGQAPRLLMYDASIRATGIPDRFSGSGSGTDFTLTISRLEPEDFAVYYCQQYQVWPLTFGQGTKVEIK ?
Return: 0

Enquiry: Reported koff reaches at least 0.001 s⁻¹ for A02_Rd4_0.6nM_C13 (antibody, V domains shown, IgG) VH: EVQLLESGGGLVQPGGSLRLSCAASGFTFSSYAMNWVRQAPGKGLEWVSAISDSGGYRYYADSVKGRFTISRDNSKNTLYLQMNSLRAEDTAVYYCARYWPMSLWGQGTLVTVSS VL: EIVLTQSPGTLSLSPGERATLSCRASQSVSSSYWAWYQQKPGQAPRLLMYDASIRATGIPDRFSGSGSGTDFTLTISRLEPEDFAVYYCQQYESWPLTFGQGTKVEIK ?
Return: 1

Enquiry: Reported koff reaches at least 0.001 s⁻¹ for C01_Rd4_0.6nM_C06 (antibody, V domains shown, IgG) VH: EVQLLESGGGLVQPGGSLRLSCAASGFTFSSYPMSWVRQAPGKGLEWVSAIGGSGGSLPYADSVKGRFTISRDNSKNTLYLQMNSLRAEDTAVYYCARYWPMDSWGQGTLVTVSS VL: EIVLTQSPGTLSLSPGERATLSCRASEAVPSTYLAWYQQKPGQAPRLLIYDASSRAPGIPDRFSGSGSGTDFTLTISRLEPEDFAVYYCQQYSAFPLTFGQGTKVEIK ?
Return: 1

Enquiry: Reported koff reaches at least 0.001 s⁻¹ for A02_Rd4_0.6nM_C26 (antibody, V domains shown, IgG) VH: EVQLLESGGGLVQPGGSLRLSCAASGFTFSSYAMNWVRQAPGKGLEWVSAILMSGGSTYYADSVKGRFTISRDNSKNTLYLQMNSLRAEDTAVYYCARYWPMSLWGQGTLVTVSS VL: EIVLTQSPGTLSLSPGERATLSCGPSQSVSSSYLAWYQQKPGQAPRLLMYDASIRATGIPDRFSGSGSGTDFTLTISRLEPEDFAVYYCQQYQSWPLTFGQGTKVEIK ?
Return: 1

Enquiry: Reported koff reaches at least 0.001 s⁻¹ for A02_Rd4_6nM_C01 (antibody, V domains shown, IgG) VH: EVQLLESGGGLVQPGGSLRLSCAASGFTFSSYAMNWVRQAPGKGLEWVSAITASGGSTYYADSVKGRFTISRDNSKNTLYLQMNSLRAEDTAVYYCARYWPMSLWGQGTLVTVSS VL: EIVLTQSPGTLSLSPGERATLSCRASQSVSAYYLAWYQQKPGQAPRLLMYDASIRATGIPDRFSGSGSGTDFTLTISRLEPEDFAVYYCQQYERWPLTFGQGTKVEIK ?
Return: 0
